- Tested on: dPPR-U8G2 N318T;N353T (designed (synthetic; NTD/CTD from Zea mays PPR10)), PDB:5I9H_1
- experimental.details: EMSA
- measurement.conditions: 5 mM Mg2+; apparent Kd; EMSA: 25 mM Tris-HCl pH 8.0, 5 mM MgCl2, 5 mM DTT, 0.1 mg/ml BSA, 50 ng/ml heparin, 10% glycerol, ~2 nM 32P-RNA, 20 min on ice
metric: pKd
Numbers only, as −log10 of the molar value.

Entry UUUUGGUUUU [U8G2 target] has what pKd?
7.53

====

- Test system: dPPR-U8A2 N318S;D348N;N353S;D383N (designed (synthetic; NTD/CTD from Zea mays PPR10)), PDB:5I9D_1
- experimental.details: EMSA
- measurement.conditions: 5 mM Mg2+; apparent Kd; EMSA: 25 mM Tris-HCl pH 8.0, 5 mM MgCl2, 5 mM DTT, 0.1 mg/ml BSA, 50 ng/ml heparin, 10% glycerol, ~2 nM 32P-RNA, 20 min on ice
metric: pKd
Answers are plain numbers, as −log10 of the molar value.

Entry UUUUAAUUUU [U8A2 target] has what pKd?
7.62

====

- Test system: dPPR-TN (designed (synthetic; NTD/CTD from Zea mays PPR10))
- experimental.details: EMSA
- measurement.conditions: 5 mM Mg2+; apparent Kd; EMSA: 25 mM Tris-HCl pH 8.0, 5 mM MgCl2, 5 mM DTT, 0.1 mg/ml BSA, 50 ng/ml heparin, 10% glycerol, ~2 nM 32P-RNA, 20 min on ice
metric: pKd
Answers are plain numbers, as −log10 of the molar value.

Entry UUUUAAUUUU [U8A2 target] has what pKd?
7.23

====

- Test system: dPPR-U8C2 D348S;D383S (designed (synthetic; NTD/CTD from Zea mays PPR10)), PDB:5I9G_1
- Sequence: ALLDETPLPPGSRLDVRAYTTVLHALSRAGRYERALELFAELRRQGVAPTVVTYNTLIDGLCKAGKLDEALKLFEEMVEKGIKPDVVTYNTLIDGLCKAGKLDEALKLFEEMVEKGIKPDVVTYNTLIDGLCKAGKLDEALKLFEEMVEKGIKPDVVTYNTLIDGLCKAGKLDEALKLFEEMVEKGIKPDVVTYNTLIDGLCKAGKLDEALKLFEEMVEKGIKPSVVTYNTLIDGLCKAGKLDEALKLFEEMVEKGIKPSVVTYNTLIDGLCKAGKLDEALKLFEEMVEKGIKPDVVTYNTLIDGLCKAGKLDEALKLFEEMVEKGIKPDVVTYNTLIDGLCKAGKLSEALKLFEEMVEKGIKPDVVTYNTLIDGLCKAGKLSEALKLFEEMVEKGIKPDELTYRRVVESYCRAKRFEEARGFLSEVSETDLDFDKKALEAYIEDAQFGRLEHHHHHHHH
- experimental.details: EMSA
- measurement.conditions: 5 mM Mg2+; apparent Kd; EMSA: 25 mM Tris-HCl pH 8.0, 5 mM MgCl2, 5 mM DTT, 0.1 mg/ml BSA, 50 ng/ml heparin, 10% glycerol, ~2 nM 32P-RNA, 20 min on ice
metric: pKd
One number for each entry, as −log10 of the molar value.

Entry UUUUCCUUUU [U8C2 target] has what pKd?
7.73

====

- Tested on: dPPR-4 (designed (synthetic; NTD/CTD from Zea mays PPR10))
- experimental.details: EMSA
- measurement.conditions: 5 mM Mg2+; apparent Kd; EMSA: 25 mM Tris-HCl pH 8.0, 5 mM MgCl2, 5 mM DTT, 0.1 mg/ml BSA, 50 ng/ml heparin, 10% glycerol, ~2 nM 32P-RNA, 20 min on ice
metric: Kd (nM)
Answers are plain numbers, in nM.

Entry UUCCAGAU [dPPR-4 target] has what Kd?
24.6

====

- Tested on: dPPR-SD (designed (synthetic; NTD/CTD from Zea mays PPR10))
- experimental.details: EMSA
- measurement.conditions: 5 mM Mg2+; apparent Kd; EMSA: 25 mM Tris-HCl pH 8.0, 5 mM MgCl2, 5 mM DTT, 0.1 mg/ml BSA, 50 ng/ml heparin, 10% glycerol, ~2 nM 32P-RNA, 20 min on ice
metric: pKd
Answers are plain numbers, as −log10 of the molar value.

Entry UUUUGGUUUU [U8G2 target] has what pKd?
7.51
